// reported TGI for each item listed
Test system: HS 578T breast
Method description: NCI tumour cell line growth inhibition, 48 h
Answer format: numeric, µM implied, no suffix.

Previously resolved entries follow.
| Line notation | Quantity measured | Recorded number |
| --- | --- | --- |
| CC(=O)Oc1ccc2c(C)cc(=O)oc2c1OC(C)=O | TGI | 99.5 |
| COc1cc2c(cc1OCCCNC(=O)c1cccc3c(=O)c4ccccc4[nH]c13)N=C[C@@H]1CCCN1C2=O | TGI | 0.121 |
| CNCC#Cc1c(F)ccc2c1/C(=C/c1[nH]ccc1OC)C(=O)N2 | TGI | 3.68 |

Challenge: Name the reported TGI value associated with the compound "CC(C)=CC[C@]12CCN[C@H]1N(S(=O)(=O)c1ccccc1)c1ccccc12"
Response given: 44.5

Challenge: Name the reported TGI value associated with the compound "O=C(Cn1c[n+](CC(=O)c2ccc(-c3ccccc3)cc2)c2ccccc21)Nc1cccc2cccnc12"
Response given: 4.3

* * *

System: PC-3 prostate
Method description: NCI tumour cell line growth inhibition, 48 h
// reported TGI for each item listed

Previously resolved entries follow.
| Line notation | Result |
| --- | --- |
| O=C1C(c2c(O)[nH]c3ccc(F)cc23)=Nc2ccccc21 | > 100 µM |
| COc1cc2c3c(n(C)c(=O)c2cc1OC)-c1cc2c(cc1/C3=C\CN)OCO2 | > 100 µM |

We next turn to a different molecule, shown below.
Challenge: Name the reported TGI value associated with the molecule "N#Cc1c(-c2ccc(Cl)cc2Cl)nc2[nH][nH]c(=S)n2c1=O"
Response given: > 100 µM

* * *

Test system: DMS 114 small cell lung
Method description: NCI tumour cell line growth inhibition, 48 h
Quantity measured: TGI

| Molecule | Quantity measured | Result |
| --- | --- | --- |
| CCOc1ccccc1NC(=O)C(=O)CC(=O)c1sc(Nc2nnc(-c3ccc(Cl)c(Cl)c3)o2)nc1C | TGI | > 100 µM |
| O=C1/C(=C/c2ccc3c(c2)OCO3)SC2C=Nc3ccccc3N12 (stereo not drawn) | TGI | > 100 µM |

Challenge: Missing value: TGI, DMS 114 small cell lung, entry COc1cc2c(c(OC)c1OC)-c1ccc(SC)c(=O)cc1C(NC=O)CC2 (stereo not drawn) . Fill in?
Response given: < 0.01 µM

* * *

Test system: COLO 205 colon
Method description: NCI tumour cell line growth inhibition, 48 h
Quantity measured: TGI

Previously resolved entries follow.
| Compound | TGI |
| --- | --- |
| CC(=O)Oc1ccc2c(C)cc(=O)oc2c1OC(C)=O | > 100 µM |
| COc1cc2c(c(OC)c1OC)-c1ccc(SC)c(=O)cc1C(NC=O)CC2 (stereo not drawn) | < 0.01 µM |

We next turn to a different compound, shown below.
Challenge: Missing value: TGI, COLO 205 colon, entry "Cn1ccc(C(=O)NCCN(CCNC(=O)c2ccn(C)c(=O)c2O)CCNC(=O)c2cccc(=O)n2O)c(O)c1=O" . Fill in?
Response given: > 100 µM

* * *

Test system: NCI-H522 lung
Method description: NCI tumour cell line growth inhibition, 48 h
Quantity measured: TGI

| Molecule | Quantity measured | Result |
| --- | --- | --- |
| CC(=O)c1sc(Nc2nnc(-c3ccc(-c4nnc(Nc5nc(C)c(C(C)=O)s5)o4)cc3)o2)nc1C | TGI | > 10 µM |
| CCOC(=O)c1nnc2c(C(=O)OCC)c3ccccc3n2c1N | TGI | > 100 µM |
| CN(CC(=O)O)c1ncc2c(n1)CCCC2 | TGI | > 100 µM |
| COC(=O)C(Cc1c[nH]c2ccccc12)NP(=O)(O)OCC1OC(n2cc(I)c(=O)[nH]c2=O)CC1O (configuration not stated) | TGI | > 100 µM |
| Cc1ccc(/C=C/C(=O)c2sc(-c3nc(C)c(C(=O)/C=C/c4ccc(C)cc4)s3)nc2C)cc1 | TGI | > 100 µM |
| Cc1[nH]c2ccccc2c1C(=O)/C=C/c1ccccc1O | TGI | > 100 µM |

Challenge: Name the reported TGI value associated with the molecule "COc1cc(-n2cc(-c3ccc(F)cc3)[nH]c2=O)cc(OC)c1OC"
Response given: > 100 µM

Challenge: Name the reported TGI value associated with the molecule "CC#CCOC(=O)c1ccccc1OC(C)=O"
Response given: > 100 µM

Challenge: Name the reported TGI value associated with the molecule "N#Cc1c(-c2ccc(Cl)cc2Cl)nc2[nH][nH]c(=S)n2c1=O"
Response given: > 100 µM

* * *

Test system: RPMI-8226 leukemia
Method description: NCI tumour cell line growth inhibition, 48 h
// reported TGI for each item listed

| Compound | Assayed system | Quantity measured | Result |
| --- | --- | --- | --- |
| O=[N+]([O-])c1ccc2c(c1)C1=C(CO2)Cc2ccccc2O1 | RPMI-8226 leukemia | TGI | > 100 µM |

Challenge: Name the reported TGI value associated with the compound "N#CCCN(C(=O)Nc1ccccc1)[C@H]1CCCC[C@@H]1N(C(=O)Nc1ccccc1)c1ccccc1"
Response given: > 100 µM

Challenge: Name the reported TGI value associated with the compound CN(C)CC1CCCC/C1=N/OC(=O)c1ccc(Cl)cc1 (stereo not given)
Response given: > 100 µM

Challenge: Name the reported TGI value associated with the compound CC(=O)Oc1c2c(c(O)c3ccccc13)C(n1cnc3c(ncn3C3OC(CO)C4OC(C)(C)OC43)c1=N)CCC2 (stereo not given)
Response given: 18.7 µM

Challenge: Name the reported TGI value associated with the compound CC(CO)(CO)N1C(=O)C2C3C=CC(C3)C2C1=O (stereo not given)
Response given: > 100 µM

Challenge: Name the reported TGI value associated with the compound CCOC1OC(=O)c2cc3ccc4c(c3c(-c3ccc5c(c3)OCO5)c21)OCO4 (stereo not given)
Response given: > 100 µM

Challenge: Name the reported TGI value associated with the compound "O=C(Oc1ccccn1)c1cc2cc(CCl)ccc2oc1=O"
Response given: > 100 µM

Challenge: Name the reported TGI value associated with the compound "Cc1ccc(-n2c(N)c(C#N)c3[nH]nc(N)c3c2=O)cc1"
Response given: > 100 µM

Challenge: Name the reported TGI value associated with the compound "O=C1/C(=C/c2ccccc2S)N=C(c2ccccc2)N1c1nc2c(Cl)cc(Cl)cc2s1"
Response given: 54.1 µM

Challenge: Name the reported TGI value associated with the compound "O=c1cc(-c2cccc3ccccc23)[nH]c2ncccc12"
Response given: > 100 µM

Challenge: Name the reported TGI value associated with the compound O=C(CC1(O)C(=O)N(Cc2ccccc2)c2ccc(F)cc21)c1ccc(C(=O)NCC2CCC3(CC2)OOC2(CCCCC2)OO3)cc1 (stereo not given)
Response given: 1.92 µM

Challenge: Name the reported TGI value associated with the compound "COc1ccc(S(=O)(=O)c2nnc(S(=O)(=O)Cc3ccccc3)s2)cc1"
Response given: > 100 µM

Challenge: Name the reported TGI value associated with the compound COc1ccc(C(OCC2OC(n3cc(C)c(=O)[nH]c3=O)CC2n2cc(Cn3cc(Cl)c(=O)[nH]c3=O)nn2)(c2ccccc2)c2ccccc2)cc1 (stereo not given)
Response given: > 100 µM

Challenge: Name the reported TGI value associated with the compound "CCCNC(=S)NNC(=O)CSc1nc(-c2ccccc2)c(-c2ccccc2)[nH]1"
Response given: > 100 µM

Challenge: Name the reported TGI value associated with the compound "COc1ccc(/C=C2/N=C(c3ccccc3)N(c3c(C)n(C)n(-c4ccccc4)c3=O)C2=O)cc1OC"
Response given: > 100 µM

Challenge: Name the reported TGI value associated with the compound COC(=O)C1=C(O)C(C(=O)OC)[C@]2(O)[C@H](C(=O)OC)[C@H]1C[C@@H](c1ccc(C(F)(F)F)cc1)[C@H]2C(=O)OC (stereo not given in full)
Response given: > 100 µM

Challenge: Name the reported TGI value associated with the compound "CCCC(=O)Nc1cc2c3c(c1)CCCN3CCC2"
Response given: > 10 µM

Challenge: Name the reported TGI value associated with the compound "O=C(N[C@@H](c1ccc(Cl)c(Cl)c1)C1CNC1)c1ccc2cnccc2c1"
Response given: 8.87 µM

Challenge: Name the reported TGI value associated with the compound "COc1cc(Cn2c(-c3ccccc3)c(Cl)c3c2-c2oncc2CC3)cc(OC)c1"
Response given: > 100 µM

Challenge: Name the reported TGI value associated with the compound Clc1ccc(C2C3COc4ccccc4C3=NN2c2ccccc2)cc1 (stereo not given)
Response given: 7.32 µM

* * *

Test system: SNB-75 CNS
Method description: NCI tumour cell line growth inhibition, 48 h; in the data active = GI50 below about 0.43 µM; inactive = the rest
Tick one outcome: active, inactive

Look over these answered cases.
| Compound | Assayed system | Class name |
| --- | --- | --- |
| O=C(Nc1ccncc1)C(=O)c1cn(S(=O)(=O)c2ccc(F)cc2)c2ccccc12 | SNB-75 CNS | inactive |
| C=C(C)[C@@H]1CC[C@]2(C(=O)NC3CCCCC3)CC[C@]3(C)[C@H](CC[C@@H]4[C@@]5(C)CCCNC(C)(C)[C@@H]5CC[C@]43C)[C@@H]12 | SNB-75 CNS | inactive |
| CNCC#Cc1c(F)ccc2c1/C(=C/c1[nH]ccc1OC)C(=O)N2 | SNB-75 CNS | active |
| CCCN1C(=O)N(CCC)C2C1NC(=S)N2/N=C/C=C/c1ccccc1OC (stereo not given) | SNB-75 CNS | active |

Please examine the following record next.
Challenge: // outcome(item) with item = "COc1ccc(Nc2nnc(-c3cc(O)ccc3O)s2)cc1"
Response given: inactive
